# Protocol text: Conjugate characterization: protein and linker/payload concentrations, payload loading (UV, MALDI-TOF, SEC-HPLC, RP-HPLC)
# Format: physicochemical
# Condition details: Anti-PRLR-SMCC-DM1 conjugates; Table 9
Reported Payload:Antibody Molar Ratio (UV) values for the following molecules.
Measurement type: Payload:Antibody Molar Ratio (UV)

• H1H6960N-DM1 (conjugate) VH: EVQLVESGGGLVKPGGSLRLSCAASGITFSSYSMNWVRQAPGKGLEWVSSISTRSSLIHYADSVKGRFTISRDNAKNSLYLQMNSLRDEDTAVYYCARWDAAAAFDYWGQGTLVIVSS VL: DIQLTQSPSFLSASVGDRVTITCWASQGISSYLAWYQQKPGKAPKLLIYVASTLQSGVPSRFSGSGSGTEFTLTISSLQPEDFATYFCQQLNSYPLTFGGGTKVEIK = 3.6
• H1H6959N2-DM1 (conjugate) VH: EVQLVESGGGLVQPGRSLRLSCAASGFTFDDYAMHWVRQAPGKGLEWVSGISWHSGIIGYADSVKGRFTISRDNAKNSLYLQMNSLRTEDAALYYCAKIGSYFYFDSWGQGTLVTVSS VL: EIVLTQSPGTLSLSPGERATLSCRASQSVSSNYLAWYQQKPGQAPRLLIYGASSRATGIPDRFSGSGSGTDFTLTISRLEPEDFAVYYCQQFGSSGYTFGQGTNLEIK = 3.8
• H1H6800P-DM1 (conjugate) VH: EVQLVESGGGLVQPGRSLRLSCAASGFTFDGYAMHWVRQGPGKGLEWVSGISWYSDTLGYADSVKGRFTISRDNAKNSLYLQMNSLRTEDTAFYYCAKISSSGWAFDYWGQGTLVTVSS VL: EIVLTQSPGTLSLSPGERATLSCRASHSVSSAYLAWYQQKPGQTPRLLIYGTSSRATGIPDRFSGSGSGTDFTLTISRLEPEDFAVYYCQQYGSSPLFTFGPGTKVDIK = 3.0
• H1H6975P-DM1 (conjugate) VH: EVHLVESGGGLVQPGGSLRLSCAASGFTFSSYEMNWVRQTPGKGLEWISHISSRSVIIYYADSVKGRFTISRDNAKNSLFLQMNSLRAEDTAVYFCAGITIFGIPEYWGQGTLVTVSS VL: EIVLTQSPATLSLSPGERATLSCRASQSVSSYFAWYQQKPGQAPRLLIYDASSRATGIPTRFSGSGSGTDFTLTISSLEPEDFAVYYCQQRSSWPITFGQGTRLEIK = 3.0
• H1H6958N2-DM1: anti-PRLR antibody H1H6958N2 conjugated to DM1 through an SMCC linker (conjugate) VH: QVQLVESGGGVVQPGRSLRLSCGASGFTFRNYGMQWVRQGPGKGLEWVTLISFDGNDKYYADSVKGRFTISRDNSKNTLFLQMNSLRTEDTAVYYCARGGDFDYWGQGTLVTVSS VL: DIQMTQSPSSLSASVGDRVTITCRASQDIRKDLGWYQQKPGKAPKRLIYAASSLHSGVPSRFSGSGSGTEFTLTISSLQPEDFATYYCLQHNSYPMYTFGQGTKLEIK = 4.0
• H1H6953N-DM1 (conjugate) VH: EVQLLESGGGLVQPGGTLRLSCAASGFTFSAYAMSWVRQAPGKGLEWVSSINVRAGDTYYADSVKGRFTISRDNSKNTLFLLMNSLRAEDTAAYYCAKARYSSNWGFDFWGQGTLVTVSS VL: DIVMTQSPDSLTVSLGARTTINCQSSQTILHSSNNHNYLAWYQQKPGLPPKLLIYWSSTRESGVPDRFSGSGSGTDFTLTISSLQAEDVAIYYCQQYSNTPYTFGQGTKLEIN = 3.2
